# System: lung cancer cell line (A549)
# test-method-notes: In vitro cytotoxicity, MTT assay, 48 h continuous drug exposure
# Type: cell-based, human
# condition: A549 cells, 48 h exposure
# Protocol: In vitro biological activity studies were carried out at the pharmacology division, IICT, Hyderabad. The compounds were evaluated for in vitro anticancer activity against five tumour cell lines derived from five cancer types (breast, cervix, mouse melanoma, lung and liver cancer) as shown in Table 2. For each compound, dose response curves for each cell line were measured at a minimum of five concentrations at 10 fold dilutions. […]
assay-readout: IC50 (nM)
One number for each entry, in nM.

Task: Give the measured IC50 of COc1cccc2c1C(=O)c1c(O)c3c(c(O)c1C2=O)C[C@@](O)(C(=O)CO)C[C@@H]3O[C@H]1C[C@H](N)[C@H](O)[C@H](C)O1 .
Result: 2900
